# System: human neural stem cells (hNSCs)
# assay_info: Astrocyte differentiation of hNSCs (GFAP staining)
# Assay type: cell-based
# stated_conditions: Homo sapiens, Neural stem cell; cultured hNSCs; highest tested concentration approximately 10.0 μM
# From the text: Results are shown in FIGS. 2 and 11, which show the lack of astrocyte differentiation of human neural stem cells in the presence of trichostatin A and valproic acid, respectively.
pEC50: −log10 of the molar value.
observed_property: pEC50

CCCC(CCC)C(=O)O    < 5.00

----------
# System: human neural stem cells (hNSCs)
# assay_info: Astrocyte differentiation of hNSCs (GFAP staining)
# Type: cell-based
# stated_conditions: cultured hNSCs; highest concentration tested approximately 31.6 nM
observed_property: EC50

CC(/C=C/C(=O)NO)=C\[C@@H](C)C(=O)c1ccc(N(C)C)cc1 [Trichostatin A, trichostatin A]    > 31.6 nM

Values were extracted from patent US20070078083A1.
